Test system: NCI-H226
Experiment: NCI tumour cell line growth inhibition, 48 h
Calls of active or inactive are those of the source. No stated cut-off is given here; in the data, active = GI50 up to about 1.1 µM and inactive = higher.
measured_metric: GI50

These solved cases illustrate the format of a correct answer.
# compound, GI50
rows = [
    ("CC1=NN(C(=O)Cc2ccccc2)C(=O)/C1=C\\c1ccco1", "> 100 µM (inactive)"),
    ("O=C(CC(=O)C1=CNc2ccccc2S1)C(=O)Nc1ccc(Cl)cc1", "49.4 µM (inactive)"),
]

Give recorded GI50 with NCI-H226 for the following compound: Cc1ccc(/C=C2\Cc3cccc(C)c3C2=O)c(C(=O)O)c1
> 100 µM (inactive)

Give recorded GI50 with NCI-H226 for the following compound: O=[N+]([O-])c1cccc(C2=NOC3C4CCC(C4)C23)c1 (stereo not given)
> 100 µM (inactive)

Give recorded GI50 with NCI-H226 for the following compound: CC(C)c1cccc2sc(NC(=O)C(=O)C(C#N)c3cccc4ccccc34)nc12 (stereo not given)
71.1 µM (inactive)

Give recorded GI50 with NCI-H226 for the following compound: O=C(O)CNC(=O)c1ccc2cc(C(=O)N3CC(CCl)c4ccc([N+](=O)[O-])cc43)[nH]c2c1 (stereo not given)
> 100 µM (inactive)

Give recorded GI50 with NCI-H226 for the following compound: CC(=O)C1C(=O)C(=O)N(c2ccc(Cl)c(Cl)c2)C1=O (stereo not given)
> 100 µM (inactive)
